Quick reference: zone of inhibition at 20 µM of the listed items.
Tested on: Candida albicans
Test: Agar well diffusion assay, C. albicans
Format: cell-based
Settings: read-out: C. Albicans ZID

- Molecule: "COC(=O)c1cc([Se][Se]c2ccc(NC=O)c(C(=O)OC)c2)ccc1NC=O [Compound 7]"
  zone of inhibition at 20 µM / mm: 4
- Molecule: "CCOC(=O)C(C#N)=NNc1ccc([Se][Se]c2ccc(NN=C(C#N)C(=O)OCC)c(C(=O)OC)c2)cc1C(=O)OC [Compound 6]"
  zone of inhibition at 20 µM / mm: 17
- Molecule: "COC(=O)c1cc([Se]Cc2ccccc2)ccc1N [Compound 15]"
  zone of inhibition at 20 µM / mm: 22
- Molecule: "COC(=O)c1cc([Se][Se]c2ccc(NC(=O)CCC(=O)O)c(C(=O)OC)c2)ccc1NC(=O)CCC(=O)O [Compound 11]"
  zone of inhibition at 20 µM / mm: 10
- Molecule: "COC(=O)c1cc([Se][Se]c2ccc(NC(=O)COc3ccccc3)c(C(=O)OC)c2)ccc1NC(=O)COc1ccccc1 [Compound 10]"
  zone of inhibition at 20 µM / mm: 5
- Molecule: "COC(=O)c1cc([Se][Se]c2ccc(N)c(C(=O)OC)c2)ccc1N [Compound 5]"
  zone of inhibition at 20 µM / mm: 21
- Molecule: "COC(=O)c1cc([Se]C#N)ccc1N [Compound 4, Methyl 2-amino-5-selenocyanatobenzoate]"
  zone of inhibition at 20 µM / mm: 18
- Molecule: "COC(=O)c1cc([Se][Se]c2ccc(NC(=O)/C=C\\C(=O)O)c(C(=O)OC)c2)ccc1NC(=O)/C=C\\C(=O)O [Compound 13]"
  zone of inhibition at 20 µM / mm: 5
- Molecule: "COC(=O)c1cc([Se]CC(=O)Nc2ccccc2)ccc1N [Compound 16]"
  zone of inhibition at 20 µM / mm: 13
- Molecule: "COC(=O)c1cc([Se]C)ccc1N [Compound 14]"
  zone of inhibition at 20 µM / mm: 24

----------
System: Staphylococcus aureus
Test: Agar well diffusion assay, S. aureus
Assay type: cell-based
Details: ratio of inhibition zone to that of positive control
Observed property: S. aureus IA% (activity index) (%)

- Compound: "COC(=O)c1cc([Se][Se]c2ccc(N)c(C(=O)OC)c2)ccc1N [Compound 5]"
  Output unit: "%"
  Reported measurement: 85.7
- Compound: "CCOC(=O)C(C#N)=NNc1ccc([Se][Se]c2ccc(NN=C(C#N)C(=O)OCC)c(C(=O)OC)c2)cc1C(=O)OC [Compound 6]"
  Output unit: "%"
  Reported measurement: 76.2
- Compound: "COC(=O)c1cc([Se][Se]c2ccc(NC=O)c(C(=O)OC)c2)ccc1NC=O [Compound 7]"
  Output unit: "%"
  Reported measurement: 14.3
- Compound: "COC(=O)c1cc([Se]C)ccc1N [Compound 14]"
  Output unit: "%"
  Reported measurement: 90.5
- Compound: "COC(=O)c1cc([Se]Cc2ccccc2)ccc1N [Compound 15]"
  Output unit: "%"
  Reported measurement: 85.7
- Compound: "CC1(C)S[C@@H]2[C@H](NC(=O)[C@H](N)c3ccccc3)C(=O)N2[C@H]1C(=O)O [Ampicillin, reference compound]"
  Output unit: "%"
  Reported measurement: 100
- Compound: "COC(=O)c1cc([Se]C#N)ccc1N [Compound 4, Methyl 2-amino-5-selenocyanatobenzoate]"
  Output unit: "%"
  Reported measurement: 76.2
- Compound: "COC(=O)c1cc([Se][Se]c2ccc(NC(=O)COc3ccccc3)c(C(=O)OC)c2)ccc1NC(=O)COc1ccccc1 [Compound 10]"
  Output unit: "%"
  Reported measurement: 38.1
- Compound: "COC(=O)c1cc([Se]CC(=O)Nc2ccccc2)ccc1N [Compound 16]"
  Output unit: "%"
  Reported measurement: 42.8
- Compound: "COC(=O)c1cc([Se][Se]c2ccc(NC(=O)CCC(=O)O)c(C(=O)OC)c2)ccc1NC(=O)CCC(=O)O [Compound 11]"
  Output unit: "%"
  Reported measurement: 33.3
- Compound: "COC(=O)c1cc([Se][Se]c2ccc(NC(=O)/C=C\\C(=O)O)c(C(=O)OC)c2)ccc1NC(=O)/C=C\\C(=O)O [Compound 13]"
  Output unit: "%"
  Reported measurement: 19.0

----------
Entries and their melting point

- Compound: "COC(=O)c1cc([Se]CC(=O)Nc2ccccc2)ccc1N"
  melting point: "126 to 128.5 °C"
- Compound: "COC(=O)c1cc([Se][Se]c2ccc(NC(=O)CCC(=O)O)c(C(=O)OC)c2)ccc1NC(=O)CCC(=O)O"
  melting point: "150 to 152 °C"
- Compound: "COC(=O)c1cc([Se][Se]c2ccc(NC=O)c(C(=O)OC)c2)ccc1NC=O"
  melting point: "195 to 196 °C"
- Compound: "CCOC(=O)C(C#N)=NNc1ccc([Se][Se]c2ccc(NN=C(C#N)C(=O)OCC)c(C(=O)OC)c2)cc1C(=O)OC"
  melting point: "105 to 106 °C"
- Compound: "COC(=O)c1cc([Se]Cc2ccccc2)ccc1N"
  melting point: "78 °C"
- Compound: "COC(=O)c1cc([Se][Se]c2ccc(NC(C)=O)c(C(=O)OC)c2)ccc1NC(C)=O"
  melting point: "186 to 187 °C"
- Compound: "COC(=O)c1cc([Se][Se]c2ccc(NC(=O)/C=C\\C(=O)O)c(C(=O)OC)c2)ccc1NC(=O)/C=C\\C(=O)O"
  melting point: "149.5 to 151 °C"
- Compound: "COC(=O)c1cc([Se][Se]c2ccc(NC(=O)COc3ccccc3)c(C(=O)OC)c2)ccc1NC(=O)COc1ccccc1"
  melting point: "152 to 154 °C"
- Compound: "COC(=O)c1cc([Se]C#N)ccc1N [Compound 4, Methyl 2-amino-5-selenocyanatobenzoate]"
  melting point: "118 to 119 °C"
- Compound: "COC(=O)c1cc([Se][Se]c2ccc(NC(=O)CCl)c(C(=O)OC)c2)ccc1NC(=O)CCl"
  melting point: "150 to 152 °C"
- Compound: "COC(=O)c1cc([Se][Se]c2ccc(N3C(=O)CCC3=O)c(C(=O)OC)c2)ccc1N1C(=O)CCC1=O"
  melting point: "100 °C"
